# System: DMS-273 (Small Cell Lung Carcinoma)
# assayProtocol: combination Emax (second highest fraction inhibited in the dose matrix, 72 h); higher = more inhibition; extreme values may be limits of the assay
# combination Emax annotations
# output: bare number, no unit

Example results:
compound: CN(C)CCCOc1ccc(-c2ccc3ncc4c(c3c2)n(C2CCOCC2)c(=O)n4C)cn1 [AZD0156] + O=C(c1cc(Cc2n[nH]c(=O)c3ccccc23)ccc1F)N1CCN(C(=O)C2CC2)CC1 [Olaparib] (first compound max 3 µM, partner max 3 µM)
measurementType: combination Emax
measured: 0.433

compound: CCc1c2c(nc3ccc(O)cc13)-c1cc3c(c(=O)n1C2)COC(=O)[C@]3(O)CC [SN-38] + O=C(c1cc(Cc2n[nH]c(=O)c3ccccc23)ccc1F)N1CCN(C(=O)C2CC2)CC1 [Olaparib] (first compound max 0.3 µM, 7x7, partner max 10 µM)
measurementType: combination Emax
measured: 0.799

compound: C[C@@H](c1ccc2nccn2c1)n1nnc2ncc(-c3cnn(C)c3)nc21 [Savolitinib] + CN(CC[C@H](CSC1=CC=CC=C1)NC2=C(C=C(C=C2)S(=O)(=O)NC(=O)C3=CC=C(C=C3)N4CCC(CC4)[C@H](C5=CC=CC=C5C6=CC=C(C=C6)Cl)O)S(=O)(=O)C(F)(F)F)CCO [AZD4320] (first compound max 1 µM, 7x7, partner max 1 µM)
measurementType: combination Emax
measured: 0.185

compound: C[C@@H](c1ccc2nccn2c1)n1nnc2ncc(-c3cnn(C)c3)nc21 [Savolitinib] + Cc1c2c(nn1C)CSCc1cc(n(C)n1)CSc1cc(c3ccccc3c1)OCCCc1c(C(=O)O)n(C)c3c-2c(Cl)ccc13 [AZD5991] (first compound max 1 µM, 7x7, partner max 1 µM)
measurementType: combination Emax
measured: 0.933

compound: CCN(CCO)CCCOc1ccc2c(Nc3cc(CC(=O)Nc4cccc(F)c4)[nH]n3)ncnc2c1 [AZD2811] + C[C@@H]1COCCN1C2=NC(=NC(=C2)C3(CC3)[S@](=N)(=O)C)C4=C5C=CNC5=NC=C4 [AZD6738] (first compound max 1 µM, 7x7, partner max 10 µM)
measurementType: combination Emax
measured: 0.771

compound: COc1cc2ncnc(Nc3ccc(F)c(Cl)c3)c2cc1OCCCN1CCOCC1 [Gefitinib] + CC(C)n1c(=O)n(C)c2cnc3cc(F)c(-c4ccc(OCCCN5CCCCC5)nc4)cc3c21 [AZD1390] (first compound max 10 µM, 7x7, partner max 0.3 µM)
measurementType: combination Emax
measured: 0.325

compound: Cn1cnc2c(F)c(Nc3ccc(Br)cc3Cl)c(C(=O)NOCCO)cc21 [Selumetinib] + CCN(CCO)CCCOc1ccc2c(Nc3cc(CC(=O)Nc4cccc(F)c4)[nH]n3)ncnc2c1 [AZD2811] (first compound max 10 µM, 7x7, partner max 1 µM)
measurementType: combination Emax
measured: 0.804

compound: CC(=O)c1c(C)c2cnc(Nc3ccc(N4CCNCC4)cn3)nc2n(C2CCCC2)c1=O [Palbociclib] + Cc1c2c(nn1C)CSCc1cc(n(C)n1)CSc1cc(c3ccccc3c1)OCCCc1c(C(=O)O)n(C)c3c-2c(Cl)ccc13 [AZD5991] (first compound max 10 µM, 7x7, partner max 1 µM)
measurementType: combination Emax
measured: 0.94

Query string: Lookup: combination Emax / DMS-273 (Small Cell Lung Carcinoma) / Cc1nc(Nc2ncc(C(=O)Nc3c(C)cccc3Cl)s2)cc(N2CCN(CCO)CC2)n1 [Dasatinib] + CC(=O)Nc1cccc(-n2c(=O)n(C3CC3)c(=O)c3c(Nc4ccc(I)cc4F)n(C)c(=O)c(C)c32)c1 [Trametinib] (first compound max 2 µM, 7x7, partner max 1 µM)
Result string: 0.323
